Test system: Saccharomyces cerevisiae BY4741 SeMeCo community
assayNotes: z-score of subpopulation abundance vs DMSO median, subpopulation auxotrophic for LM; higher = larger share of this subpopulation than in DMSO controls
conditionContext: 10 µM; 24 h; SM minimal medium; subpopulation (auxotrophy): LM
Counter-ions that a name gives are not always drawn.
Each record gets a class by z-score of subpopulation abundance: band 1 = under -0.3, band 2 = from -0.3 up to 0.1, band 3 = 0.1 and over

// return the class label for CCOC(=O)C1=C(C)NC(C)=C(C(=O)OC)C1c1cccc([N+](=O)[O-])c1 (stereo unspecified)
band 1

// return the class label for CCN1CCCC1CNC(=O)c1cc(S(=O)(=O)CC)c(N)cc1OC (stereo unspecified) [Amisulpride]
band 2

// return the class label for CS(=O)(=O)c1ccc([C@@H](O)[C@@H](CF)NC(=O)C(Cl)Cl)cc1
band 1

// return the class label for C[C@H]1COc2c(C3(N)CC3)c(F)cc3c(=O)c(C(=O)O)cn1c23 [Pazufloxacin mesylate]
band 2

// return the class label for Cn1cc(C(=O)[C@@H]2CCc3[nH]cnc3C2)c2ccccc21 [Ramosetron Hydrochloride]
band 3

// return the class label for CCCN1CCCC[C@H]1C(=O)Nc1c(C)cccc1C [Ropivacaine HCl]
band 3

// return the class label for CN(Cc1ccc(C(C)(C)C)cc1)Cc1cccc2ccccc12 [Butenafine HCl]
band 1

// return the class label for CC[C@H]1OC(=O)C[C@@H](O)[C@H](C)[C@@H](O[C@@H]2O[C@H](C)[C@@H](O)[C@H](N(C)C)[C@H]2O)[C@@H](CCN2C[C@H](C)C[C@H](C)C2)C[C@@H](C)C(=O)/C=C/C(C)=C/[C@@H]1CO[C@@H]1O[C@H](C)[C@@H](O)[C@@H](OC)[C@H]1OC
band 3

// return the class label for O=C1OCCN1/N=C/c1ccc([N+](=O)[O-])o1
band 3

// return the class label for C1CCN2C[C@@H]3C[C@@H](CN4CCCC[C@@H]34)[C@H]2C1 [(-)-Sparteine Sulfate]
band 2

// return the class label for CC(=O)OCC1=C(C(=O)O)N2C(=O)[C@@H](NC(=O)Cc3cccs3)[C@H]2SC1
band 2

// return the class label for COc1cnc(NS(=O)(=O)c2ccc(N)cc2)nc1
band 1

// return the class label for CC(C)c1nc(N(C)S(C)(=O)=O)nc(-c2ccc(F)cc2)c1/C=C/[C@@H](O)C[C@@H](O)CC(=O)O
band 2

// return the class label for CCCCOc1cc(C(=O)NCCN(CC)CC)c2ccccc2n1 [Dibucaine HCl]
band 2

// return the class label for CC(C)(C)CC(C)(C)c1ccc(OCCOCC[N+](C)(C)Cc2ccccc2)cc1 [Benzethonium Chloride]
band 1

// return the class label for Cc1cccc(C)c1NC(=O)C1CCCCN1C (stereo unspecified) [Mepivacaine HCl]
band 1

// return the class label for C[C@@H](O)[C@H]1C(=O)N2C(C(=O)O)=C(S[C@@H]3CN[C@H](C(=O)N(C)C)C3)[C@H](C)[C@H]12 [Meropenem]
band 2

// return the class label for CCn1cc(C(=O)O)c(=O)c2cc(F)c(N3CCNC(C)C3)c(F)c21 (stereo unspecified) [Lomefloxacin HCl]
band 3

// return the class label for CC1=C(C(=O)OCCN(Cc2ccccc2)c2ccccc2)C(c2cccc([N+](=O)[O-])c2)C(P2(=O)OCC(C)(C)CO2)=C(C)N1 (stereo unspecified)
band 3

// return the class label for COC(=O)C1=C(C)NC(C)=C(C(=O)OC(C)(C)CN(C)CCC(c2ccccc2)c2ccccc2)C1c1cccc([N+](=O)[O-])c1 (stereo unspecified) [Lercanidipine]
band 3

// return the class label for Cc1cc(CC(C)CC(C)(C)C)n(O)c(=O)c1 (stereo unspecified)
band 3

// return the class label for C[C@@H](O)[C@H]1C(=O)N2C(C(=O)[O-])=C(SC3Cn4cnc[n+]4C3)[C@H](C)[C@H]12 (stereo partly specified)
band 2

// return the class label for OC(Cn1cncn1)(Cn1cncn1)c1ccc(F)cc1F
band 1

// return the class label for CNCC[C@H](Oc1cccc2ccccc12)c1cccs1 [Duloxetine HCl]
band 1

// return the class label for CC[C@H]1OC(=O)[C@H](C)[C@@H](O[C@H]2C[C@@](C)(OC)[C@@H](O)[C@H](C)O2)[C@H](C)[C@@H](O[C@@H]2O[C@H](C)C[C@H](N(C)C)[C@H]2O)[C@](C)(O)C[C@@H](C)/C(=N\OCOCCOC)[C@H](C)[C@@H](O)[C@]1(C)O
band 3

// return the class label for COc1cc2c(cc1OC)C(=O)C(CC1CCN(Cc3ccccc3)CC1)C2 (stereo unspecified) [Donepezil]
band 3

// return the class label for CNCC[C@H](Oc1cccc2ccccc12)c1cccs1 [Duloxetine]
band 1

// return the class label for CC(=O)OC1CC2(C)C(CC(O)C3C4(C)CCC(O)C(C)C4CCC32C)C1=C(CCC=C(C)C)C(=O)O (stereo unspecified)
band 3

// return the class label for CCN1CC(CCN2CCOCC2)C(c2ccccc2)(c2ccccc2)C1=O (stereo unspecified) [Doxapram HCl]
band 2

// return the class label for CN1[C@@H]2CC[C@H]1C[C@@H](OC(=O)c1c[nH]c3ccccc13)C2 [Tropisetron HCl]
band 3

// return the class label for CC/C(=C(\c1ccccc1)c1ccc(OCCN(C)C)cc1)c1ccccc1 [Tamoxifen Citrate]
band 2

Where do these numbers come from? They come from the supplement of paper PMC8975748.
